System: Enterococcus sp.
Assay: in vitro antibacterial evaluation, MIC by broth dilution
Format: cell-based
Conditions: broth dilution, inoculum 5×10^5 CFU/mL, 18 hours at 35° C.; strain GC 4554
quantity: MIC Enterococcus faecalis (GC 4554) (µg/mL)
Give the quantity in µg/mL, number only.

Tell me the measured MIC Enterococcus faecalis (GC 4554) of CC(c1ccccc1)C1NC(=O)CNC(=O)C(CO)NC(=O)C(C(O)C2CNC(=N)N2C2OC(CO)C(O)C(O)C2O)NC(=O)C(C(O)C2CNC(=N)N2)NC(=O)C(Cc2ccc(OC3OC(CO)C(OC4OC5COC6(CCSCC6)OC5C(O)C4O)C(O)C3O)cc2)NC1=O (centres unmarked) [Example 217] , please.
32

Tell me the measured MIC Enterococcus faecalis (GC 4554) of CC(c1ccccc1)C1NC(=O)CNC(=O)C(CO)NC(=O)C(C(O)C2CNC(=N)N2C2OC(CO)C(O)C(O)C2O)NC(=O)C(C(O)C2CNC(=N)N2)NC(=O)C(Cc2ccc(OC3OC(CO)C(OC4OC5COC(c6ccc(-c7cccs7)cc6)OC5C(O)C4O)C(O)C3O)cc2)NC1=O (centres unmarked) [Example 163] , please.
8

Tell me the measured MIC Enterococcus faecalis (GC 4554) of CC(C)CC(=O)OC1C(O)C(OC2C(CO)OC(Oc3ccc(CC4NC(=O)C(C(C)c5ccccc5)NC(=O)CNC(=O)C(CO)NC(=O)C(C(O)C5CNC(=N)N5C5OC(CO)C(O)C(O)C5O)NC(=O)C(C(O)C5CNC(=N)N5)NC4=O)cc3)C(O)C2O)OC2COC3(OC21)C1CC2CC(C1)CC3C2 (centres unmarked) [Example 218] , please.
4

Tell me the measured MIC Enterococcus faecalis (GC 4554) of CC(c1ccccc1)C1NC(=O)CNC(=O)C(CO)NC(=O)C(C(O)C2CNC(=N)N2C2OC(CO)C(O)C(O)C2O)NC(=O)C(C(O)C2CNC(=N)N2)NC(=O)C(Cc2ccc(OC3OC(CO)C(OC4OC5COC6(OC5C(O)C4O)C(C)CCCC6C)C(O)C3O)cc2)NC1=O (centres unmarked) [Example 206] , please.
2

Tell me the measured MIC Enterococcus faecalis (GC 4554) of CC(c1ccccc1)C1NC(=O)CNC(=O)C(CO)NC(=O)C(C(O)C2CNC(=N)N2C2OC(CO)C(O)C(O)C2O)NC(=O)C(C(O)C2CNC(=N)N2)NC(=O)C(Cc2ccc(OC3OC(CO)C(OC4OC5COC6(CC7CCC6(C)C7(C)C)OC5C(O)C4O)C(O)C3O)cc2)NC1=O (centres unmarked) [Example 215] , please.
1

Tell me the measured MIC Enterococcus faecalis (GC 4554) of Cc1ccc(Oc2ccc(C3OCC4OC(OC5C(CO)OC(Oc6ccc(CC7NC(=O)C(C(C)c8ccccc8)NC(=O)CNC(=O)C(CO)NC(=O)C(C(O)C8CNC(=N)N8C8OC(CO)C(O)C(O)C8O)NC(=O)C(C(O)C8CNC(=N)N8)NC7=O)cc6)C(O)C5O)C(O)C(O)C4O3)cc2)cc1 (centres unmarked) [Example 174] , please.
1

Tell me the measured MIC Enterococcus faecalis (GC 4554) of CC(c1ccccc1)C1NC(=O)CNC(=O)C(CO)NC(=O)C(C(O)C2CNC(=N)N2C2OC(CO)C(O)C(O)C2O)NC(=O)C(C(O)C2CNC(=N)N2)NC(=O)C(Cc2ccc(OC3OC(CO)C(OC4OC(CO)C(O)C5OC6(CCCCCCCCCCCC6)OC45)C(O)C3O)cc2)NC1=O (centres unmarked) [Example 210a] , please.
8

Tell me the measured MIC Enterococcus faecalis (GC 4554) of CC(c1ccccc1)C1NC(=O)CNC(=O)C(CO)NC(=O)C(C(O)C2CNC(=N)N2C2OC(CO)C(O)C(O)C2O)NC(=O)C(C(O)C2CNC(=N)N2)NC(=O)C(Cc2ccc(OC3OC(CO)C(OC4OC5COC6(CCCCC6)OC5C(O)C4O)C(O)C3O)cc2)NC1=O (centres unmarked) [Example 203] , please.
8

Tell me the measured MIC Enterococcus faecalis (GC 4554) of CC(C)=CCCC(C)=CCOc1ccc(C2OCC3OC(OC4C(CO)OC(Oc5ccc(CC6NC(=O)C(C(C)c7ccccc7)NC(=O)CNC(=O)C(CO)NC(=O)C(C(O)C7CNC(=N)N7C7OC(CO)C(O)C(O)C7O)NC(=O)C(C(O)C7CNC(=N)N7)NC6=O)cc5)C(O)C4O)C(O)C(O)C3O2)cc1 (centres unmarked) [Example 183] , please.
4

Tell me the measured MIC Enterococcus faecalis (GC 4554) of CC(c1ccccc1)C1NC(=O)CNC(=O)C(CO)NC(=O)C(C(O)C2CNC(=N)N2C2OC(CO)C(O)C(O)C2O)NC(=O)C(C(O)C2CNC(=N)N2)NC(=O)C(Cc2ccc(OC3OC(CO)C(OC4OC(COCc5ccc(OCc6ccccc6)cc5)C(O)C(O)C4O)C(O)C3O)cc2)NC1=O (centres unmarked) [Example 231] , please.
4

Tell me the measured MIC Enterococcus faecalis (GC 4554) of COc1ccc(Oc2cccc(C3OCC4OC(OC5C(CO)OC(Oc6ccc(CC7NC(=O)C(C(C)c8ccccc8)NC(=O)CNC(=O)C(CO)NC(=O)C(C(O)C8CNC(=N)N8C8OC(CO)C(O)C(O)C8O)NC(=O)C(C(O)C8CNC(=N)N8)NC7=O)cc6)C(O)C5O)C(O)C(O)C4O3)c2)cc1 (centres unmarked) [Example 180] , please.
2

Tell me the measured MIC Enterococcus faecalis (GC 4554) of N=C1NCC(C(O)C2NC(=O)C(Cc3ccc(OC4OC(CO)C(OC5OC6COC(c7ccccc7)OC6C(O)C5O)C(O)C4O)cc3)NC(=O)C(CC3CCCCC3)NC(=O)CNC(=O)C(CO)NC(=O)C(C(O)C3CNC(=N)N3C3OC(CO)C(O)C(O)C3O)NC2=O)N1 (centres unmarked) [Example 199] , please.
4

* * *

Tested on: Staphylococcus sp.
Experiment: in vitro antibacterial evaluation, MIC by broth dilution
Assay type: cell-based
Details: broth dilution, 18 hours at 35° C.; strain SMITH GC 4543
quantity: MIC Staphylococcus aureus-SMITH (GC 4543) (µg/mL)
Give the quantity in µg/mL, number only.

Form entry - test system: Staphylococcus sp.; read-out: MIC Staphylococcus aureus-SMITH (GC 4543); compound: CC(C)=CCCC1OCC2OC(OC3C(CO)OC(Oc4ccc(CC5NC(=O)C(C(C)c6ccccc6)NC(=O)CNC(=O)C(CO)NC(=O)C(C(O)C6CNC(=N)N6C6OC(CO)C(O)C(O)C6O)NC(=O)C(C(O)C6CNC(=N)N6)NC5=O)cc4)C(O)C3O)C(O)C(O)C2O1 (stereo not drawn)
4

Form entry - test system: Staphylococcus sp.; read-out: MIC Staphylococcus aureus-SMITH (GC 4543); compound: Cc1cc(C2OCC3OC(OC4C(CO)OC(Oc5ccc(CC6NC(=O)C(C(C)c7ccccc7)NC(=O)CNC(=O)C(CO)NC(=O)C(C(O)C7CNC(=N)N7C7OC(CO)C(O)C(O)C7O)NC(=O)C(C(O)C7CNC(=N)N7)NC6=O)cc5)C(O)C4O)C(O)C(O)C3O2)ccc1[N+](=O)[O-] (stereo not drawn)
8

Form entry - test system: Staphylococcus sp.; read-out: MIC Staphylococcus aureus-SMITH (GC 4543); compound: CC(c1ccccc1)C1NC(=O)CNC(=O)C(CO)NC(=O)C(C(O)C2CNC(=N)N2C2OC(CO)C(O)C(O)C2O)NC(=O)C(C(O)C2CNC(=N)N2)NC(=O)C(Cc2ccc(OC3OC(CO)C(OC4OC(CO)C(O)C5OC(c6ccccc6)OC45)C(O)C3O)cc2)NC1=O (single isomer, unassigned) [Example 104b]
0.5

* * *

Give MIC Streptococcus agalactiae (GC 4564) for every item shown.
Test system: Streptococcus sp.
Assay: in vitro antibacterial evaluation, MIC by broth dilution
Format: cell-based
Conditions: broth dilution, 18 hours at 35° C.
Give the quantity in µg/mL, number only.

Tell me the measured MIC Streptococcus agalactiae (GC 4564) of CC(C)=CCN1CC(C(O)C2NC(=O)C(C(O)C3CNC(=N)N3)NC(=O)C(Cc3ccc(OC4OC(CO)C(OC5OC6COC7(OC6C(O)C5O)C5CC6CC(C5)CC7C6)C(O)C4O)cc3)NC(=O)C(C(C)c3ccccc3)NC(=O)CNC(=O)C(CO)NC2=O)N(C2OC(CO)C(O)C(O)C2O)C1=N (stereo not shown) , please.
0.5

Tell me the measured MIC Streptococcus agalactiae (GC 4564) of CC(C)CC(=O)OC1C(O)C(OC2C(CO)OC(Oc3ccc(CC4NC(=O)C(C(C)c5ccccc5)NC(=O)CNC(=O)C(CO)NC(=O)C(C(O)C5CNC(=N)N5C5OC(CO)C(O)C(O)C5O)NC(=O)C(C(O)C5CNC(=N)N5)NC4=O)cc3)C(O)C2O)OC2COC3(OC21)C1CC2CC(C1)CC3C2 (stereo not shown) , please.
0.25

Tell me the measured MIC Streptococcus agalactiae (GC 4564) of CCOc1cc(COCC2OC(OC3C(CO)OC(Oc4ccc(CC5NC(=O)C(C(C)c6ccccc6)NC(=O)CNC(=O)C(CO)NC(=O)C(C(O)C6CNC(=N)N6C6OC(CO)C(O)C(O)C6O)NC(=O)C(C(O)C6CNC(=N)N6)NC5=O)cc4)C(O)C3O)C(O)C(O)C2O)ccc1OC (stereo not shown) , please.
2

Tell me the measured MIC Streptococcus agalactiae (GC 4564) of CC(c1ccccc1)C1NC(=O)CNC(=O)C(CO)NC(=O)C(CC2CNC(=N)N2C2OC(CO)C(O)C(O)C2O)NC(=O)C(CC2CNC(=N)N2)NC(=O)C(Cc2ccc(OC3OC(CO)C(OC4OC(CO)C(O)C(OCc5ccc(OCc6ccccc6)cc5)C4O)C(O)C3O)cc2)NC1=O (stereo not shown) [Example 246b] , please.
64
